- Tested on: PA-1 ovarian tumor cells
- protocol.text: Viability of ovarian tumor cells after siRNA transfection (trypan blue count)
- Type: cell-based, human
- setup.conditions: 50 nM siRNA, DharmaFECT, 96 hours, vs control siRNA
Reported values of Response to siRNA (% growth inhibition) for individual entries

>  <substance>
siEVI1-2910: siRNA duplex; sense 5′-ggaauguggaggagagaauuu-3′ SEQ ID NO: 13, antisense SEQ ID NO: 14 (sense GGAAUGUGGAGGAGAGAAUUU; antisense AUUCUCUCCUCCACAUUCCUU; listed as RNA, chemistry not given here)

>  <unit>
%

>  <Response to siRNA (% growth inhibition)>
0

$$$$
>  <substance>
siEVI1-2994: siRNA duplex; sense 5′-augaagaaguugaagaugauu-3′ SEQ ID NO: 15, antisense SEQ ID NO: 16 (sense AUGAAGAAGUUGAAGAUGAUU; antisense UCAUCUUCAACUUCUUCAUUU; listed as RNA, chemistry not given here)

>  <unit>
%

>  <Response to siRNA (% growth inhibition)>
18

$$$$
>  <substance>
siEVI1-979: siRNA duplex; sense 5′-gugcaaagacuguggacaauu-3′ SEQ ID NO: 9, antisense SEQ ID NO: 10 (sense GUGCAAAGACUGUGGACAAUU; antisense UUGUCCACAGUCUUUGCACUU; listed as RNA, chemistry not given here)

>  <unit>
%

>  <Response to siRNA (% growth inhibition)>
0

$$$$
>  <substance>
siEVI1-992: siRNA duplex; sense 5′-ggacaaauguucagcacuauu-3′ SEQ ID NO: 11, antisense SEQ ID NO: 12 (sense GGACAAAUGUUCAGCACUAUU; antisense UAGUGCUGAACAUUUGUCCUU; listed as RNA, chemistry not given here)

>  <unit>
%

>  <Response to siRNA (% growth inhibition)>
0

$$$$
>  <substance>
siEVI1-256: siRNA duplex; sense 5′-ccagauaaaugaucagauauu-3′ SEQ ID NO: 7, antisense SEQ ID NO: 8 (sense CCAGAUAAAUGAUCAGAUAUU; antisense UAUCUGAUCAUUUAUCUGGUU; listed as RNA, chemistry not given here)

>  <unit>
%

>  <Response to siRNA (% growth inhibition)>
0

$$$$
